Values were extracted from the supplement of paper PMC10065799.

# assayed.system: Grb2 SH2 (UniProt P62993)
# Sequence (P62993 whole entry, looked up, the tested form may be a part): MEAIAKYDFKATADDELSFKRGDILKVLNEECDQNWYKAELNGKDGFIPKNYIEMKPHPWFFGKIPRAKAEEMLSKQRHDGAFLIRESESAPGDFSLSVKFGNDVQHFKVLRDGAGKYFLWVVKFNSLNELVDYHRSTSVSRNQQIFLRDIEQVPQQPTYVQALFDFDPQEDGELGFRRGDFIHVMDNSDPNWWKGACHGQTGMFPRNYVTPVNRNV
# measurement.notes: SH2 binding enrichment of the phosphorylated peptide, bacterial display (enrichment ratio); higher = better substrate or ligand; peptides without Tyr show the background;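 note: peptide library displayed on the E. coli surface as eCPX fusions, selected cells deep-sequenced, score is each peptide's frequency after selection divided by its frequency in the input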
property.measured: SH2 binding enrichment

>  <sequence.entry>
VVIVLYFSLWK [SLC6A2_Y249]

>  <recorded.value>
1.59

$$$$
>  <sequence.entry>
TEALFYTDDPA [ADPRS_Y75_T79P_YF]

>  <recorded.value>
0.636

$$$$
>  <sequence.entry>
DLVLQYLRVPL [F9_Y371_A366D]

>  <recorded.value>
1.47

$$$$
>  <sequence.entry>
VIEYSYTSADG [DHCR7_Y382_C380Y]

>  <recorded.value>
0.927

$$$$
>  <sequence.entry>
TLQSMSGCDVG [HLA-B_Y123_Y123S]

>  <recorded.value>
0.836

$$$$
>  <sequence.entry>
RAVLLYEYVGK [NATD1_Y45]

>  <recorded.value>
1.19

$$$$
>  <sequence.entry>
DLDPNYVLSSR [CKM_Y125]

>  <recorded.value>
0.765

$$$$
>  <sequence.entry>
SRDDYYETIAM [NPY1R_Y347_D346Y]

>  <recorded.value>
0.589

$$$$
>  <sequence.entry>
SLFNGYVYSGM [NEIL3_Y71_V76M]

>  <recorded.value>
1.06

$$$$
>  <sequence.entry>
YDRREYSRFEK [ITGB7_Y758]

>  <recorded.value>
1.02

$$$$
>  <sequence.entry>
GPKSTYISSAG [GOLGA5_Y62_A67G]

>  <recorded.value>
0.713

$$$$
>  <sequence.entry>
IRTIDYRYTVW [IDS_Y497]

>  <recorded.value>
1.04

$$$$
>  <sequence.entry>
EILDVYIFLGP [GAA_Y340_G335E]

>  <recorded.value>
0.965

$$$$
>  <sequence.entry>
RKELFYKADGE [SERPINC1_Y272]

>  <recorded.value>
0.858

$$$$
>  <sequence.entry>
KIRDWYQRQRP [KRT14_Y151]

>  <recorded.value>
0.84

$$$$
>  <sequence.entry>
KCCCIYEKPRS [PPP1R11_Y64_A69S]

>  <recorded.value>
0.708

$$$$
>  <sequence.entry>
KEDPEYKKKFR [FAM161A_Y278_E273K]

>  <recorded.value>
0.921

$$$$
>  <sequence.entry>
AELVQYYMEHH [PTPN11_Y80]

>  <recorded.value>
0.688

$$$$
>  <sequence.entry>
GLDGSYLLTDS [SH2D1A_Y29_R32T]

>  <recorded.value>
0.683

$$$$
>  <sequence.entry>
QRTMKYTTATG [MCCC1_Y41]

>  <recorded.value>
0.85

$$$$
>  <sequence.entry>
GIYSGYDDAWD [POLR1C_Y36_N32I]

>  <recorded.value>
0.854

$$$$
>  <sequence.entry>
YRAVKYLQMVG [AVPR2_Y117_C112Y]

>  <recorded.value>
0.709

$$$$
>  <sequence.entry>
LKVQVYILGRE [ASS1_Y359_G356V]

>  <recorded.value>
1.46

$$$$
>  <sequence.entry>
LLANAYIFVVQ [L1CAM_Y418_YF]

>  <recorded.value>
1.31

$$$$
>  <sequence.entry>
KDGNGYISAAE [CALM1_Y100]

>  <recorded.value>
0.742

$$$$
>  <sequence.entry>
QDLRLYRPHLA [BTK_Y617_G613D]

>  <recorded.value>
0.728

$$$$
>  <sequence.entry>
YEEDSYVKRSQ [RET_Y905]

>  <recorded.value>
0.719

$$$$
>  <sequence.entry>
PESCLYKESWL [IQGAP2_Y630]

>  <recorded.value>
0.916

$$$$
>  <sequence.entry>
AGQEDDDRLRP [RAC1_Y64_Y64D]

>  <recorded.value>
0.867

$$$$
